Measured values drawn from ChEMBL document CHEMBL4765481 for this set.

target: Sialyltransferase ST3Gal-I (Rattus norvegicus); experiment: Inhibition of rat alpha-2,3-O-ST3GALI assessed as reduction in sialylated-product formation at 500 uM using p-nitrophenyl T-antigen and CMP-NeuSAc incubated for 15 mins by reverse-phase HPLC analysis relative to control
assay-readout: inhibition
Note to self: number, then unit, no commentary.

Which inhibition reading was recorded for the molecule COc1ccc2c(CC(=O)N[C@@H](CC(=O)O)C(=O)O[C@@H]3CC[C@@]4(C)[C@H](CC[C@@H]5[C@@H]4CC[C@]4(C)[C@@H]([C@H](C)CCC(=O)OCCOCCOCCN=[N+]=[N-])CC[C@@H]54)C3)cc(=O)oc2c1 ?
0%

Please give the result for C[C@H](CCC(=O)OCCOCCOCCOCCN=[N+]=[N-])[C@H]1CC[C@H]2[C@@H]3CC[C@@H]4C[C@H](OC(=O)[C@H](CC(=O)O)Nc5ccc([N+](=O)[O-])c6nonc56)CC[C@]4(C)[C@H]3CC[C@]12C too.
0%
